# methodSummary: Intrinsic clearance in human liver microsomes assessed per mg protein at 3 uM measured after 45 mins by LC-MS/MS analysis
# Assay type: ADME, microsome
# measurementContext: read-out: CLH
measuredProperty: microsomal CLint at 3 µM (µL/min/mg)
Answer with a number only, understood to be in µL/min/mg.

compound="Cc1nn(-c2ncnc3nc[nH]c23)c2c1C(c1ccc(F)cc1Cl)CC(=O)N2 (configuration not stated)" valueobserved=23.7

Would you mind telling me what microsomal CLint at 3 µM value was observed for Cc1nn(-c2ncnc3nc[nH]c23)c2c1C(c1ccc(OC(C)C)cc1)CC(=O)N2 (configuration not stated) ?
58.3

----------
# testSystem: G-protein coupled receptor 39 (Homo sapiens, UniProt O43194)
# Sequence (O43194 whole entry): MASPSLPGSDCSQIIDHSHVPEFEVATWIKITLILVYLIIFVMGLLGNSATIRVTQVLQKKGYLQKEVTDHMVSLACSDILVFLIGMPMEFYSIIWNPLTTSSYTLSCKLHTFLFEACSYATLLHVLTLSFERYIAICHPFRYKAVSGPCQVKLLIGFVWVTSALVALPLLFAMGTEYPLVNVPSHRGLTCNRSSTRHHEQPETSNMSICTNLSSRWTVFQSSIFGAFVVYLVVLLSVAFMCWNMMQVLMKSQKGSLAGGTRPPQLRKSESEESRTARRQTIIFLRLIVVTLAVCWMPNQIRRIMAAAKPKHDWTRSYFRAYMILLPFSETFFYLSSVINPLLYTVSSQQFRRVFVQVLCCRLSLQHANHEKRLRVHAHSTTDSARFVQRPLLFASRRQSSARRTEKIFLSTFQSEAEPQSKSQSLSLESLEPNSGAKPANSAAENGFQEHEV
# methodSummary: Agonist activity at human GPR39 expressed in HEK293 cells co-expressing Galphaq assessed as myo-[2-3H]inositol phosphate accumulation in presence of 10 uM Zn2+ measured after 75 mins by scintillation proximity assay
# Assay type: functional, cell-based
measuredProperty: log10 EC50 (log10 of the value in nM)
Record value = log10 of EC50 given in nM.

Previously resolved entries follow.
compound="Cc1nn(-c2ncnc3nc[nH]c23)c2c1C(OCCn1cccn1)CC(=O)N2 (stereo not drawn)" valueobserved=1.20
compound="Cc1noc(C)c1COC1CC(=O)Nc2c1c(C)nn2-c1ncnc2nc[nH]c12 (stereo not drawn)" valueobserved=0.70
compound="Cc1nn(-c2ncnc3nc[nH]c23)c2c1C(OCc1ccccc1F)CC(=O)N2 (stereo not drawn)" valueobserved=0.60
compound=O=C1/C(=C/NCCCO)C(c2ccccc2)=NN1c1nc2ccccc2s1 valueobserved=2.30
compound="Cc1nn(-c2ncnc3nc[nH]c23)c2c1C(NC(=O)Cc1cccs1)CC(=O)N2 (stereo not drawn)" valueobserved=0.48

Would you mind telling me what log10 EC50 value was observed for Cc1nn(-c2ncnc3nc[nH]c23)c2c1C(OCc1ccc(C(C)C)cc1)CC(=O)N2 (stereo not drawn) ?
0.70

Then Cc1nn(-c2ncnc3nc[nH]c23)c2c1C(C(=O)N(C)c1ccccc1)CC(=O)N2 (stereo not drawn) ?
1.51

Then Cc1nn(-c2ncnc3nc[nH]c23)c2c1C(NC(=O)Cc1ccccc1)CC(=O)N2 (stereo not drawn) ?
0.48

Then Cc1nn(-c2ncnc3nc[nH]c23)c2c1C(OC(=O)c1ccc(F)cc1)CC(=O)N2 (stereo not drawn) ?
0.60

Then C=CCN1c2c(n(C)c(=O)n(C)c2=O)NC1N/N=C/c1ccc(O)cc1O (stereo not drawn) ?
2.53

Then Cc1nn(-c2ncnc3nc[nH]c23)c2c1C(C(=O)Nc1ccccc1)CC(=O)N2 (stereo not drawn) ?
1.00

Then Cc1nn(-c2ncnc3nc[nH]c23)c2c1C(OCc1ccccc1C#N)CC(=O)N2 (stereo not drawn) ?
0.90

Then Cc1nn(-c2ncnc3nc[nH]c23)c2c1C(C(=O)NCc1ccccc1)CC(=O)N2 (stereo not drawn) ?
0.70

Then Cc1nn(-c2ncnc3nc[nH]c23)c2c1C(OCc1ccc(F)cc1)CC(=O)N2 (stereo not drawn) ?
0.00

Then Cc1nn(-c2ncnc3nc[nH]c23)c2c1C(C(=O)NCc1ccc3c(c1)OCO3)CC(=O)N2 (stereo not drawn) ?
0.85

Then Cc1nn(-c2ncnc3nc[nH]c23)c2c1C(OC(=O)Cc1ccccc1)CC(=O)N2 (stereo not drawn) ?
0.78

Then C/C(=N\NC(=O)c1cc2ccccc2cc1O)c1ccc(N)cc1 ?
3.04

Then Cc1nn(-c2ncnc3nc[nH]c23)c2c1C(OCc1ccc(C#N)cc1)CC(=O)N2 (stereo not drawn) ?
0.60
